Recorded GI50 by entry
test system: UO-31; experiment: NCI tumour cell line growth inhibition, 48 h
Active and inactive are the calls of the source. No stated cut-off is given here; in the data, active = GI50 up to about 1.1 µM and inactive = higher.

# compound, GI50
data = [
    ("CSc1ccc(NC(=S)NN(C)C)cc1", "> 10 µM (inactive)"),
    ("Cc1cc(C)c(S(=O)(=O)N2CCCN(S(=O)(=O)c3c(C)cc(C)cc3C)OCCCO2)c(C)c1", "> 100 µM (inactive)"),
    ("Nc1nc2c(c(=O)[nH]1)NC(CO)CN2 (stereo unspecified)", "> 100 µM (inactive)"),
    ("O=[N+]([O-])c1cc(/C=N/C23CC4CC(CC(C4)C2)C3)ccc1Cl", "7.52 µM (inactive)"),
    ("O=[N+]([O-])c1ccc(Cc2nc3cc4ccccc4cc3[nH]2)cc1C(F)(F)F", "15.8 µM (inactive)"),
    ("Nc1c2c(nc3ccccc13)CCCc1ccccc1-2", "10.5 µM (inactive)"),
]

###

system: OVCAR-4; assay: NCI tumour cell line growth inhibition, 48 h
Active and inactive are the calls of the source. No stated cut-off is given here; in the data, active = GI50 up to about 1.1 µM and inactive = higher.
Labels: active, inactive

# compound, qualitative-label
rows = [
    ("Cc1ccc2oc(=O)c3c(O)c4cccc(OC5OC(C)C6O[C@@H](c7ccccc7)OC6C5OC5OC(C)C(O)C(O)C5O)c4c4oc(=O)c1c2c34 (stereo partly specified)", "active"),
    ("COc1cc2ccc(CC#N)cc2cc1OC", "inactive"),
    ("CN1CCN(c2ccc(-n3cc(C(=O)O)c(=O)c4cc(F)c(N5CCN(C)CC5)cc43)nc2)CC1", "inactive"),
    ("CC(C)(C)OC(=O)Cn1ncn(NC(=O)Cc2ccccc2)c1=S", "inactive"),
    ("O=C(O)c1ccccc1/N=C/c1ccc(N(CCCl)CCCl)cc1", "inactive"),
    ("COc1cccc(N2C(=O)CS(=O)(=O)C2c2cccc(Oc3ccccc3)c2)c1 (stereo unspecified)", "inactive"),
    ("N#Cc1cccc(/C=N/N/C(N)=N/O)c1", "inactive"),
    ("COc1ccc2c(c1)CC1c3c(ccc(OC)c3O)CC2N1C (stereo unspecified)", "inactive"),
    ("COc1ccc2c(c1)-c1c(c3cc(OC)ccc3n1CCN(C)C)CC2", "inactive"),
    ("O=[N+]([O-])/C(C(Cl)=C(Cl)Cl)=C1/OCCS1", "inactive"),
    ("O=C1C=CC(=O)C(CNc2ccc(C(=O)OCc3ccccc3)cc2)=C1", "inactive"),
]

###

system: A498; test: NCI tumour cell line growth inhibition, 48 h
Calls of active or inactive are those of the source. Cut-off read from the data, not from the text of the source: active = GI50 up to about 1.1 µM and inactive = higher.
Recorded GI50 by entry
value-type: GI50

# molecule, result
records = [
    ("Cn1cc2ccccc2c1-c1nc(F)nc(OCC(=O)[C@H]2CCC3[C@@H]4CCC5=CC(=O)CC[C@]5(C)C4[C@@H](O)C[C@@]32C)n1 (stereo not given in full)", "17.3 µM (inactive)"),
    ("N#Cc1c(-c2ccc(Cl)cc2)c(C#N)c(=O)n(NS(=O)(=O)c2ccccc2)c1-c1ccccc1", "> 25 µM (inactive)"),
    ("COc1ccc(N(CC(=O)O)N=O)cc1", "> 100 µM (inactive)"),
    ("COC(=O)c1cc2ccc(N)nc2[nH]c1=O", "> 100 µM (inactive)"),
    ("NC(Cc1ccc(N(CCCl)CCCl)cc1)C(=O)NC(CCC(=O)O)C(=O)O (stereo not given)", "> 100 µM (inactive)"),
    ("CCOC(=O)c1cc(=O)n(C)c(=O)n1C", "> 100 µM (inactive)"),
    ("CCOC(=O)C1=C(C)C2C3C(=O)NC(=O)C3C1(C)C1C(=O)NC(=O)C21 (stereo not given)", "> 100 µM (inactive)"),
    ("COc1ccc2occ(CCC(=O)O)c2c1", "> 100 µM (inactive)"),
    ("COc1cc2[nH]c(=O)c3cc(-c4ccccc4)cc4c(Cl)nc(c1OC)c2c43", "> 100 µM (inactive)"),
    ("Cc1cccc(Cl)c1NCC(O)CN1CCN(C)CC1 (stereo not given)", "> 100 µM (inactive)"),
]

###

test system: MDA-MB-435; assay: NCI tumour cell line growth inhibition, 48 h
Active and inactive are the calls of the source. No stated cut-off is given here; in the data, active = GI50 up to about 1.1 µM and inactive = higher.
Recorded GI50 by entry

# compound, study-system, GI50
data = [
    ("Nc1ncnc2c1ncn2C1OC(CO)C(O)C1NS(=O)(=O)c1ccccc1 (stereo not given)", "MDA-MB-435", "> 100 µM (inactive)"),
    ("O=c1cc(O)c2c(O)cc(O)cc2o1", "MDA-MB-435", "> 100 µM (inactive)"),
    ("COc1cc(/C=C2/C[C@H]3[C@@H]4CC=C5C[C@@H](OC(C)=O)CC[C@]5(C)[C@H]4CC[C@]3(C)NC2=O)cc(OC)c1OC", "MDA-MB-435", "36.3 µM (inactive)"),
    ("Cc1n[nH]c(=O)n1/N=C/c1c[nH]c2ccccc12", "MDA-MB-435", "> 100 µM (inactive)"),
    ("COc1ccc(C2SCC(=O)N2NC2=NC(=O)CC(=O)N2)cc1 (stereo not given)", "MDA-MB-435", "> 100 µM (inactive)"),
]

###

test system: NCI-H460; experiment: NCI tumour cell line growth inhibition, 48 h
Activity calls are given as the source filed them. Cut-off read from the data, not from the text of the source: active = GI50 up to about 1.1 µM and inactive = higher.
Labels: t = active, f = inactive

# compound-structure, qualitative-label
measured = [
    ("CC(=O)N/C(=C\\c1cccc([N+](=O)[O-])c1)c1nc2ccc3c(c2[nH]1)C(=O)c1ccccc1C3=O", "f"),
    ("COc1cc([C@@H]2c3cc4c(cc3[C@@H](Nc3ccc([N+](=O)[O-])cc3C(=O)c3ccccc3)[C@H]3COC(=O)[C@H]23)OCO4)cc(OC)c1OC", "t"),
    ("COc1ccc2c(c1)CC[C@@H]1[C@@H]2CC[C@]2(C)C(=O)/C(=C/c3ccc(C#N)cc3)C[C@@H]12", "f"),
    ("Cc1cc([N+](=O)[O-])ccc1Sc1c2ccccc2nc2ccccc12", "f"),
]

###

system: OVCAR-3; assay: NCI tumour cell line growth inhibition, 48 h
Activity calls are given as the source filed them. No stated cut-off is given here; in the data, active = GI50 up to about 1.1 µM and inactive = higher.
Labels: active, inactive

# compound, study-system, qualitative-label
data = [
    ("O=C(O)c1ccccc1.[Ag]", "OVCAR-3", "inactive"),
    ("CCOC(=O)c1nc2cc(F)cc(F)c2[nH]c1=O", "OVCAR-3", "inactive"),
    ("CC1=CC23C(COC(=O)C24CO4)C(C(=O)O)=CC3C1C (stereo not given)", "OVCAR-3", "inactive"),
    ("C/C(=N\\Nc1nc2ccccc2s1)c1cccnn1", "OVCAR-3", "active"),
    ("CCOC(=O)C1C(c2ccc(O)c(OC)c2)c2c(n[nH]c2O)CC1(C)O (stereo not given)", "OVCAR-3", "inactive"),
]

###

tested on: DMS-273; assay: NCI tumour cell line growth inhibition, 48 h
Calls of active or inactive are those of the source. Cut-off read from the data, not from the text of the source: active = GI50 up to about 1.1 µM and inactive = higher.
Recorded GI50 by entry
value-type: GI50

# molecule, result
rows = [
    ("CC1(C)OC2OC(/C=C/[N+](=O)[O-])C3OC(C)(C)OC3C2O1 (stereo not given)", "17.3 µM (inactive)"),
    ("COc1ccc(C(C)Nc2cc(OC)c(OC)c(OC)c2)cc1 (stereo not given)", "1.82 µM (inactive)"),
    ("O=C(O)C1=NN=C(C(=O)O)NN1", "> 100 µM (inactive)"),
    ("COC(=O)C1=C(C(=O)OC)C2(OC(C)=O)c3ccccc3-c3ccccc3C12 (stereo not given)", "4.98 µM (inactive)"),
    ("O=C(CCc1cc(-c2ccc(F)cc2)n[nH]1)N(Cc1ccccc1)Cc1ccccc1", "> 100 µM (inactive)"),
]

###

system: OVCAR-5; assay: NCI tumour cell line growth inhibition, 48 h
Structures can show the parent of a compound that is named as a salt. Calls of active or inactive are those of the source. Rule as the data show it: active = GI50 up to about 1.1 µM and inactive = higher.
Labels: y for active, n for inactive

# molecule, qualitative-label
rows = [
    ("NCCCN1CCN(c2ccccc2)CC1", "n"),
    ("CN1CCN(c2ccc(-n3cc(C(=O)O)c(=O)c4cc(F)c(N5CCN(C)CC5)cc43)nc2)CC1", "n"),
    ("O=C1CC[C@@H](S(=O)(=O)c2ccccc2)[C@H](/C=C/c2ccccc2)O1", "n"),
    ("[N-]=[N+]=Nc1cc(=O)n(-c2ccccc2)c2ccccc12", "n"),
    ("c1ccc2c(-c3csc(-c4c[nH]c5ccccc45)n3)c[nH]c2c1", "n"),
    ("O=c1cc(O)c2c(O)cc(O)cc2o1", "n"),
    ("CC(=O)Oc1ccc2cc(Oc3cc(Cl)c(Cl)cc3Cl)c(=O)oc2c1", "n"),
    ("O=CNC(Cc1c[nH]cn1)C(=O)O (centres undefined)", "n"),
    ("NC(=O)c1ccccc1NC(=O)C(=O)C(C(=O)c1ccc(Cl)c(Cl)c1)C1OC(=O)c2ccccc21 (centres undefined)", "n"),
    ("O=C1CCC(CCc2nc3ccccc3[nH]2)(c2ccccc2)C(=O)N1 (centres undefined)", "n"),
    ("CCCCCCCCCCCCN(CC(O)C(O)C(OC1OC(CO)C(O)C(O)C1O)C(O)CO)C(=O)CCCCCCCCCCC (centres undefined)", "n"),
    ("CCC(/C(=N\\Nc1c(Cl)cc(Cl)cc1Cl)c1ccccc1)n1ccnc1C (centres undefined)", "n"),
    ("Cc1ccc2c(c1)CC1(Cc3ccccc3C1=O)C2=O (centres undefined)", "n"),
    ("COC(=O)C1(C(=O)OC)CC2=C(S(=O)(=O)c3ccccc3)C[C@@H](C#N)[C@H]2C1", "n"),
    ("COc1ccc(C(C)Nc2cc(OC)c(OC)c(OC)c2)cc1 (centres undefined)", "n"),
    ("Cc1ccc(S(=O)(=O)OI(O)CC(F)(F)F)cc1", "n"),
    ("C/C(=N\\NC(=S)N1CCCCCCCCCCCC1)c1ccccn1", "y"),
    ("O=C(O)C1=NN=C(C(=O)O)NN1", "n"),
    ("O=[N+]([O-])c1ccc(-c2ccc([C@H]3CC(c4cc(F)c(Cl)cc4Cl)=NN3)o2)cc1", "n"),
    ("CCCCC(=O)Nc1ccc2cc(C(=O)OC)c(Cl)nc2n1", "n"),
    ("CS/C(C#N)=C(\\C#N)SC", "n"),
    ("CC(=O)O[C@H]1C(=O)[C@@]2(C)[C@H]([C@H](OC(=O)C3CCCCC3)[C@]3(O)C[C@H](OC(=O)[C@H](O)[C@@H](NC(=O)C4CCCCC4)C4CCCCC4)C(C)=C1C3(C)C)[C@]1(OC(C)=O)CO[C@@H]1C[C@@H]2O", "y"),
    ("CC(=O)OCC1OC(N2C(C)=C(C(C)=O)C(c3ccco3)C(C#N)=C2S)C(OC(C)=O)C(OC(C)=O)C1OC(C)=O (centres undefined)", "n"),
    ("COc1ccc(C(F)(F)F)cc1NC(=O)O/N=C(/Cl)C(C)C", "n"),
    ("OC(CNc1ccccn1)c1ccccc1 (centres undefined) [PHENYRAMIDOL HYDROCHLORIDE]", "n"),
    ("C[C@]12CCC3C4=C(CCC3C1CCC2=O)C(=O)[C@H]1O[C@H]1C4=O (some centres undefined)", "n"),
    ("C[C@@]12C=CC3C/C(=N\\C(N)=S)C=C(CCCC4OCCO4)[C@]3(CC1)C2 (some centres undefined)", "n"),
    ("COc1ccc2[nH]c3c4c(cc(-c5ccccc5)c3c2c1)C(=O)N(c1ccccc1)C4=O", "n"),
    ("Nc1nnc(NC(=O)C2=NS(=O)(=O)c3cc(S(N)(=O)=O)c(Cl)cc3N2)[nH]1", "n"),
    ("CCOC(=O)N1CCC2(CC1)C[C@](Sc1ccccc1)(C(C)=O)[C@H](C)O2", "n"),
    ("COc1ccc(C[N+]23C(CC[C@H]2c2ccccc2)CC[C@H]3c2ccccc2)cc1 (some centres undefined)", "n"),
    ("O=C(CCc1cc(-c2ccc(F)cc2)n[nH]1)N(Cc1ccccc1)Cc1ccccc1", "n"),
    ("Cc1cccc(Cl)c1NCC(O)CN1CCN(C)CC1 (centres undefined)", "n"),
    ("CC(=O)/C=C/CCC(=O)/C=C/C(=O)OC(CCC(=O)/C=C/C(=O)O)CC(C)=O (centres undefined)", "n"),
    ("Cn1cc(NC(=O)Nc2cc(C(=O)Nc3cc(C(=O)Nc4cc(S(=O)(=O)O)c5cc(S(=O)(=O)O)cc(S(=O)(=O)O)c5c4)n(C)c3)n(C)c2)cc1C(=O)Nc1cc(C(=O)Nc2cc(S(=O)(=O)O)c3cc(S(=O)(=O)O)cc(S(=O)(=O)O)c3c2)n(C)c1", "n"),
    ("CC(C)=Nn1cnc2c1=NC(C)(C)NC=2C(N)=O", "n"),
    ("CCOc1ccc2nc(NC(=O)c3c/c(=N\\NC(=O)C[N+](C)(C)C)c4ccc(O)cc4o3)sc2c1", "n"),
    ("COc1cc(C2SCC(=O)N2NC(=O)c2ccc(NC(C)=O)cc2)cc(OC)c1OC (centres undefined)", "n"),
    ("O=C(O)c1ccccc1.[Ag]", "n"),
]
